Source: the supplement of paper PMC7877785

Assay: self-splicing fitness, log relative to wild type (ln ratio); higher = more splicing; Tetrahymena group I intron in knt gene, E. coli kanamycin selection, DiMSum; sequences stand for … in CUCUCU…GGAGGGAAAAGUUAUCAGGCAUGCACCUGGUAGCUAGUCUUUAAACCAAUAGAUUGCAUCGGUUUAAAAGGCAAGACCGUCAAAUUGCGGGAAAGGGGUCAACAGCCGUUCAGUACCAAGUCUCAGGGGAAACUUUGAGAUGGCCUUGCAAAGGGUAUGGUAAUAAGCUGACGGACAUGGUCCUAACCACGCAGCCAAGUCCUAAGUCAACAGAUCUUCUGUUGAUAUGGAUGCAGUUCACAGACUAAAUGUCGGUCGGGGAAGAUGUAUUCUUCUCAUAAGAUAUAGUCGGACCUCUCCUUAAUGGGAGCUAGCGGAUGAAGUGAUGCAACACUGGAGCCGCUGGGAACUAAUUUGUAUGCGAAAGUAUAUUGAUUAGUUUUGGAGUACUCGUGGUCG;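 note: selection with 25 µg/mL kanamycin versus none on LB agar overnight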
Settings: 37 °C
readout.type: self-splicing fitness (ln)

Per the records, this sequence ( `GUUAAGCAAUAUUACGUGGU` ) has self-splicing fitness (ln) equal to -2.35

Item: `UGCCAGCAAUAUUACGUGAU` | self-splicing fitness (ln): -1.6

self-splicing fitness (ln) reported for this sequence `UUCAAGCAAUAUUACGUUUU` : -2.65

Record `GCAAAGCAAUAUUACGAUCG` . Reported self-splicing fitness (ln): -0.0765

Recorded result, `UGUUAGCAAUAUUACGGCAG` , self-splicing fitness (ln): -1.03

The sequence `UAGAAGCAAUAUUACGAACC` showed self-splicing fitness (ln) equal to -0.44

Documented self-splicing fitness (ln) of `GUGUAGCAAUAUUACGAGUU` : -1.39

Kindly consider the entry below.
Measured self-splicing fitness (ln), `AUUGAGCAAUAUUACGUAUU` : -1.25

* * *

Experiment: self-splicing fitness, log relative to wild type (ln ratio); higher = more splicing; Tetrahymena group I intron in knt gene, E. coli kanamycin selection, DiMSum; sequences stand for … in CUCUCU…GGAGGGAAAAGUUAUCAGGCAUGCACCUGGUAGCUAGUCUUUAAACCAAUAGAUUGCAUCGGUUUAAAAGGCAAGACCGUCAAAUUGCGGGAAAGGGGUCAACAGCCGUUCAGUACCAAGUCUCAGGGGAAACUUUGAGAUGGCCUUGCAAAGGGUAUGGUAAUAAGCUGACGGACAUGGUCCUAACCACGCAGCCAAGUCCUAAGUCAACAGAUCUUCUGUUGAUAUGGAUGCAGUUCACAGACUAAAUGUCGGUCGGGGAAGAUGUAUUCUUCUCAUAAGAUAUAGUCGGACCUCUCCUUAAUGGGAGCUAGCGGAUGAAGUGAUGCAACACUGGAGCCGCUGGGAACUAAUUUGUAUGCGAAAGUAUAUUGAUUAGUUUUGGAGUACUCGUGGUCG
Conditions: 37 °C
self-splicing fitness (ln) below -2 gives no (0); self-splicing fitness (ln) at or above it gives yes (1).

Tell me whether self-splicing fitness (ln) is at least -2 here: `AUACAGCAAUAUUACGACAC`
yes (1)

# check: self-splicing fitness (ln) of `ACGUAGCAAUAUUACGUUAA` is greater than or equal to -2
no (0)

Say whether `AUUGAGCAAUAUUACGAUAC` shows self-splicing fitness (ln) of -2 or more.
yes (1)

Assess whether reported self-splicing fitness (ln) for `AAAGAGCAAUAUUACGUAGU` sits at -2 or higher.
no (0)

API: above_or_equal(metric=self-splicing fitness (ln), cutoff=-2) for item `GGGGAGCAAUAUUACGUUUC`
no (0)

Quick check: does `CUCAAGCAAUAUUACGAGAA` have self-splicing fitness (ln) greater than or equal to -2?
yes (1)

Others:
Would you say `GUCGAGCAAUAUUACGGCCC` shows self-splicing fitness (ln) at minimum -2?
yes (1)

Decide: self-splicing fitness (ln) of `GACUAGCAAUAUUACGAUUU` >= -2?
yes (1)

Hi, just wondering whether `CGUUAGCAAUAUUACGAAAG` shows self-splicing fitness (ln) of -2 or higher.
yes (1)

Item `UACUAGCAAUAUUACGUGGU` with self-splicing fitness (ln) of -2 or above?
no (0)

Please tell me: is the sequence `GCAUAGCAAUAUUACGAAUC` at or over -2 in terms of self-splicing fitness (ln)?
yes (1)

Decide: self-splicing fitness (ln) of `UUAUAGCAAUAUUACGCAAG` >= -2?
yes (1)

Quick check: does `GAAUAGCAAUAUUACGAGAU` have self-splicing fitness (ln) greater than or equal to -2?
yes (1)

Kindly determine if self-splicing fitness (ln) recorded for `UUGAAGCAAUAUUACGAAAG` is above or exactly -2.
yes (1)

Given the entry `UCGAAGCAAUAUUACGUAAU` , answer whether its self-splicing fitness (ln) meets or surpasses -2.
yes (1)

Is it the case that `AUCGAGCAAUAUUACGGUGC` has self-splicing fitness (ln) reaching or exceeding -2?
no (0)

* * *

Experiment: self-splicing fitness, log relative to wild type (ln ratio); higher = more splicing; Tetrahymena group I intron in knt gene, E. coli kanamycin selection, DiMSum; sequences stand for … in CUCUCU…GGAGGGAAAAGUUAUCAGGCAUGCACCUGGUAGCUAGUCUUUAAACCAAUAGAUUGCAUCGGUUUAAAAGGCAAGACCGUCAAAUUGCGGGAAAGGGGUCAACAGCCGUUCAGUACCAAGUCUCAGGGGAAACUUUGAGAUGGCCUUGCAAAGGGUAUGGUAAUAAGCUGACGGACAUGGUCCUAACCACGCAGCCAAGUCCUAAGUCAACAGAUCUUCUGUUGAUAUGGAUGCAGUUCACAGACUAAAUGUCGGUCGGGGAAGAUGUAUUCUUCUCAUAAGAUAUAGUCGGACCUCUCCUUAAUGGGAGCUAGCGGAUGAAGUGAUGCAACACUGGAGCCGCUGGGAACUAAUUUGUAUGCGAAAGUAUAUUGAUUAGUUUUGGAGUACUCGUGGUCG
Settings: 30 °C
readout.type: self-splicing fitness (ln)
// no unit, no text: just the number

Record excerpt, results attached:
Form field self-splicing fitness (ln), entry `UGGUAGCAAUAUUACGAGAC` : -1.69

For `UCCGAGCAAUAUUACGUUGC` the sequence record lists self-splicing fitness (ln) as -3.03

Kindly note the recorded self-splicing fitness (ln) for `AGGGAGCAAUAUUACGAUUC` , which is -3.76

The value of self-splicing fitness (ln) measured for the sequence `GUGUAGCAAUAUUACGGGCA` turned out to be -0.665

Next:
self-splicing fitness (ln) reading for `CUUGAGCAAUAUUACGCUAC` : -2.82

Entry `UAGAAGCAAUAUUACGGAAC` ; self-splicing fitness (ln) = -1.25

Reported self-splicing fitness (ln) ( `CUGGAGCAAUAUUACGUUUC` ) = -3.92

* * *

Assay: self-splicing fitness, log relative to wild type (ln ratio); higher = more splicing; Tetrahymena group I intron in knt gene, E. coli kanamycin selection, DiMSum; sequences stand for … in CUCUCU…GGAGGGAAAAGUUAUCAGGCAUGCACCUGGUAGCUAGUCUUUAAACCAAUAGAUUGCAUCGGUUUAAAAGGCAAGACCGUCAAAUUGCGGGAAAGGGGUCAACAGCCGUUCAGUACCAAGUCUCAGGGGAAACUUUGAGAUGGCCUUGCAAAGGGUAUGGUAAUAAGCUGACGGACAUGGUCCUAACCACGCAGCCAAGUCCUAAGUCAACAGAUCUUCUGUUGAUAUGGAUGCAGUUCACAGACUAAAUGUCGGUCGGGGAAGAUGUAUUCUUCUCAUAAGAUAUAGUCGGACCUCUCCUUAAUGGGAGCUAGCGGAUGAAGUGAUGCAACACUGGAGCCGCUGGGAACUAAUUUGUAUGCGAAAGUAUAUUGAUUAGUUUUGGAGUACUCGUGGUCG
Conditions: 37 °C
# key: entry, value: self-splicing fitness (ln)
Reply: number alone, nothing else.

Documented self-splicing fitness (ln) of `UUGUAGCAAUAUUACGCUAG` : -0.816

// self-splicing fitness (ln) value for `GCAAAGCAAUAUUACGGCUU` : -0.763

// self-splicing fitness (ln) value for `CGCCAGCAAUAUUACGGAAC` : -1.52

***
// self-splicing fitness (ln) lookup, sequence = `GCAGAGCAAUAUUACGCGGU` , result: -3.16

* * *

# self-splicing fitness (ln) values compiled below
Test: self-splicing fitness, log relative to wild type (ln ratio); higher = more splicing; Tetrahymena group I intron in knt gene, E. coli kanamycin selection, DiMSum; sequences stand for … in CUCUCU…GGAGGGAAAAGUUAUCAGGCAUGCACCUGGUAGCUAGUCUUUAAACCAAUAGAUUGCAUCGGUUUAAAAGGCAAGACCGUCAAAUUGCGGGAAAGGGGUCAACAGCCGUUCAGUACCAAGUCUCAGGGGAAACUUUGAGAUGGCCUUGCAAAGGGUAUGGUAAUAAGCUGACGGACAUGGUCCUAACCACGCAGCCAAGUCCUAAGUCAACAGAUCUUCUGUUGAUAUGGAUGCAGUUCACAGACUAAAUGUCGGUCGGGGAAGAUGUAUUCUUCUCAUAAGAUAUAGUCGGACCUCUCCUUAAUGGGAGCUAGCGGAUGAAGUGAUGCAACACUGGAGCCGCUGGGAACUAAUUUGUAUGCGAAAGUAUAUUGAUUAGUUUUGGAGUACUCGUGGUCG
Details: 37 °C

For `UCAGAGCAAUAUUACGAGUG` the sequence record lists self-splicing fitness (ln) as -0.458
